Would you mind telling me the reported cell viability of each entry?
tested on: HCT116; assay: cell viability (CellTiter-Glo) relative to plate median (fraction of plate median); higher = more viable cells; conditions: 5 µM; treatment time 24 h; reporter: TCF4/Wnt

* Nc1ccc(C(=O)O)cc1 | 0.996

Lab note: each compound below needs its cell viability filled in.
1. C#C[C@]1(O)CC[C@H]2[C@@H]3CCC4=CC(=O)CC[C@@H]4[C@H]3CC[C@@]21C
2. O=C1c2ccccc2C(=O)c2c(Cl)cccc21 [Chloro-Anthraquinone]

Given back:
[0.994, 0.993]

###

tested on: SW480; experiment: cell viability (CellTiter-Glo) relative to plate median (fraction of plate median); higher = more viable cells; settings: 5 µM; treatment time 24 h; reporter: 7TFP
Please go through the items and note down their cell viability.
Answers are plain numbers.

Worked cases, answers included:
- O=C(CCBr)N1CCN(C(=O)CCBr)CC1: 1.02
- OCCN(CCO)c1nc(N2CCCCC2)c2nc(N(CCO)CCO)nc(N3CCCCC3)c2n1: 0.973
- COc1cc(C)c2c(=O)cc(-c3ccccc3)oc2c1: 1

For each entry beneath this line, provide reported cell viability.
1. O=C1C=C(O)C(=O)c2ccccc21
2. O=C1NC(Cc2ccc(O)cc2)C(=O)N2CCCC12 (stereo not given) [cyclo(prolyltyrosyl)]

Given back:
1. 1.02
2. 1.02

###

Hi there, I'd appreciate the recorded cell viability for every entry that follows.
system: HCT116; assay: cell viability (CellTiter-Glo) relative to plate median (fraction of plate median); higher = more viable cells; conditions: 5 µM; treatment time 24 h; reporter: TCF4/Wnt
Give bare numbers.

• CC(C(=O)O)c1cccc(Oc2ccccc2)c1 (stereo unspecified) = 0.98

Hi, could you look up cell viability for each item in my list?
1. CCCCC(=O)O[C@H]1CC[C@H]2[C@@H]3CCc4cc(O)ccc4[C@H]3CC[C@]12C
2. O=c1cc(-c2ccccc2O)oc2cc(O)ccc12
3. CCC/C=C1\OC(=O)C2=C1CCC=C2
4. CC1(C)C(=O)C=C[C@]2(C)[C@H]3CC[C@@]4(C)[C@H](c5ccoc5)OC(=O)[C@H]5O[C@]54[C@]3(C)C(=O)C[C@@H]12
5. O=C1CCC(N2C(=O)c3ccccc3C2=O)C(=O)N1 (stereo unspecified)
6. NS(=O)(=O)c1cc(C2(O)NC(=O)c3ccccc32)ccc1Cl (stereo unspecified)

Given back:
1: 1.01; 2: 1.02; 3: 0.973; 4: 0.974; 5: 0.972; 6: 1.02

Hey, quick one: what's cell viability for each of these?
1. CC(NCCC(c1ccccc1)c1ccccc1)c1ccccc1 (stereo unspecified)
2. CCOC(=O)C1=C(C)NC(C)=C(C(=O)OC)C1c1cccc([N+](=O)[O-])c1 (stereo unspecified)
3. CCCCc1oc2ccccc2c1C(=O)c1cc(I)c(OCCN(CC)CC)c(I)c1
4. Nc1nc2c(ncn2[C@H]2C[C@H](O)[C@@H](CO)O2)c(=O)[nH]1 [Desoxyguanosin]

Given back:
1. 1.02
2. 1.02
3. 1.02
4. 1.01

###

Kindly state TCF/Wnt firefly luciferase reporter signal for each of the entries shown.
test system: SW480; experiment: TCF/Wnt firefly luciferase reporter signal relative to plate median (fraction of plate median); higher = higher Wnt reporter signal; conditions: 5 µM; treatment time 24 h; reporter: 7TFP
One number for each entry.

Past entries and their recorded results:
- NC/C=C/C(=O)O: 1
- OCCN1C[C@H](O)[C@@H](O)[C@H](O)[C@H]1CO: 0.988

Pending compound:
Lookup result for COc1ccc2c(c1)OCC(Cc1ccc(O)c(OC)c1)C2=O (stereo not drawn) ; measured TCF/Wnt firefly luciferase reporter signal: 0.971
